- run_description: Antiproliferative activity against T cells
- details: T-cell
measure: IC50

molecule=N#C[C@@H]1C[C@H](F)CN1C(=O)CN[C@H]1[C@@H]2CN(c3ccc(C(=O)NC4CC4)cc3)C[C@@H]21 observed="> 10 µM"
molecule=N#Cc1ccc(N2C[C@@H]3[C@H](C2)[C@H]3NCC(=O)N2C[C@@H](F)C[C@H]2C#N)cc1F observed="> 10 µM"
molecule=CNC(=O)c1ccc(N2C[C@@H]3[C@H](C2)[C@H]3NCC(=O)N2C[C@@H](F)C[C@H]2C#N)cc1 observed="> 10 µM"

====

- target_or_system: Dipeptidyl peptidase 2 (Homo sapiens)
Response field label takes criterion met when IC50 is strictly below 10 µM and criterion not met in all other cases.

molecule=N#Cc1ccc(N2C[C@@H]3[C@H](C2)[C@H]3NCC(=O)N2C[C@@H](F)C[C@H]2C#N)cc1F class_label="criterion met"
molecule=N#Cc1cccnc1N1C[C@@H]2[C@H](C1)[C@H]2NCC(=O)N1C[C@@H](F)C[C@H]1C#N class_label="criterion met"
molecule=N#Cc1cc(F)ccc1N1C[C@@H]2[C@H](C1)[C@H]2NCC(=O)N1C[C@@H](F)C[C@H]1C#N class_label="criterion not met"
molecule=N#C[C@@H]1C[C@H](F)CN1C(=O)CN[C@H]1[C@@H]2CN(c3nccs3)C[C@@H]21 class_label="criterion not met"
molecule=N#C[C@@H]1C[C@H](F)CN1C(=O)CN[C@H]1[C@@H]2CN(c3ccc(C(N)=O)cc3)C[C@@H]21 class_label="criterion not met"
molecule=N#C[C@@H]1C[C@H](F)CN1C(=O)CN[C@H]1[C@@H]2CN(c3ccc([N+](=O)[O-])cn3)C[C@@H]21 class_label="criterion not met"
molecule=N#Cc1ccc(N2C[C@@H]3[C@H](C2)[C@H]3NCC(=O)N2C[C@@H](F)C[C@H]2C#N)c(F)c1 class_label="criterion met"
molecule=N#Cc1ccc(N2C[C@@H]3[C@H](C2)[C@H]3NCC(=O)N2C[C@@H](F)C[C@H]2C#N)nc1 class_label="criterion not met"
molecule=N#Cc1ccc(N2C[C@@H]3[C@H](C2)[C@H]3NCC(=O)N2CC(F)(F)C[C@H]2C#N)nc1 class_label="criterion met"
molecule=N#Cc1c(Cl)cccc1N1C[C@@H]2[C@H](C1)[C@H]2NCC(=O)N1C[C@@H](F)C[C@H]1C#N class_label="criterion met"

The measured values listed here are drawn from ChEMBL document CHEMBL1155131.
